Measurement Target: UniProt:O75469
Assay Details: Transactivation of PXR (unknown origin) expressed in human HepG2 cells assessed as maximum receptor activation response relative to control
Format: cell-based
Test Settings: human HepG2 cells that express PXR, read-out: %max
compounds and their reported Emax
Write the answer as a number in %, unit excluded.

Illustrative cases are given below, each with its answer.
1) O=C([C@H]1CC[C@H](CO)CC1)N1CC[C@](c2ccc(C(F)(C(F)(F)F)C(F)(F)F)cc2)(S(=O)(=O)c2ccc(F)cc2)C1
8
2) O=C([C@H]1CC[C@@](F)(C(=O)O)CC1)N1CC[C@](c2ccc(C(F)(C(F)(F)F)C(F)(F)F)cc2)(S(=O)(=O)c2ccc(F)cc2)C1
69

Provide one value: measured Emax of O=C(O)[C@@H]1[C@@H]2C[C@@H](C(=O)N3CC[C@](c4ccc(C(F)(C(F)(F)F)C(F)(F)F)cc4)(S(=O)(=O)c4ccc(F)cc4)C3)C[C@@H]21
11

* * *

Measurement Target: Nuclear receptor subfamily 1 group I member 2 (Homo sapiens)
Sequence (O75469 whole entry): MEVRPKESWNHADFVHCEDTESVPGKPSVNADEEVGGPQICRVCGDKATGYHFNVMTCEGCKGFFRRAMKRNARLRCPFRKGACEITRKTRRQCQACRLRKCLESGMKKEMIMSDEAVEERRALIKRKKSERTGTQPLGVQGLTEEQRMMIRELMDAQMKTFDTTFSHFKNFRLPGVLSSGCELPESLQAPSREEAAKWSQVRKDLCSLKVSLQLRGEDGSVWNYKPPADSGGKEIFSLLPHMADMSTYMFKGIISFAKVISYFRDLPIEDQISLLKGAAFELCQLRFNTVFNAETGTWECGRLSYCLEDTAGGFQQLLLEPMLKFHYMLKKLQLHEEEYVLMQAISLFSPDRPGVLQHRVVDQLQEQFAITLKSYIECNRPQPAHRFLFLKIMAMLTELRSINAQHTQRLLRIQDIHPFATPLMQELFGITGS
Assay Details: Transactivation of PXR (unknown origin) expressed in human HepG2 cells
Assay type: cell-based
pEC50: −log10 of the molar value.
Result Type: pEC50

1. O=C([C@H]1CC[C@H](O)CC1)N1CC[C@](c2ccc(C(F)(C(F)(F)F)C(F)(F)F)cc2)(S(=O)(=O)c2ccc(F)cc2)C1
< 4.30
2. O=C(O)C1CCC(O)(C(=O)N2CC[C@](c3ccc(C(F)(C(F)(F)F)C(F)(F)F)cc3)(S(=O)(=O)c3ccc(F)cc3)C2)CC1 (stereo in doubt; 12)
< 4.30

Read the next record carefully.
Provide one value: measured pEC50 of CC1(C(=O)N2CC[C@](c3ccc(C(F)(C(F)(F)F)C(F)(F)F)cc3)(S(=O)(=O)c3ccc(F)cc3)C2)CCS(=O)(=O)CC1
< 4.30

* * *

Measurement Target: PXR (Homo sapiens, UniProt O75469)
Sequence (O75469 whole entry): as above
Assay Details: Transactivation of PXR (unknown origin) expressed in human HepG2 cells assessed as maximum receptor activation response relative to control
Format: cell-based
Test Settings: human HepG2 cells that express PXR, read-out: %max
Result Type: Emax (%)
Write the answer as a number in %, unit excluded.

Illustrative cases are given below, each with its answer.
1) O=C(O)C12CCC(C(=O)N3CC[C@](c4ccc(C(F)(C(F)(F)F)C(F)(F)F)cc4)(S(=O)(=O)c4ccc(F)cc4)C3)(CC1)CC2
6
2) O=C(O)[C@H]1[C@@H]2C[C@@H](C(=O)N3CC[C@](c4ccc(C(F)(C(F)(F)F)C(F)(F)F)cc4)(S(=O)(=O)c4ccc(F)cc4)C3)C[C@@H]21
15

Using PXR (Homo sapiens, UniProt O75469) as the test system, report measured Emax of O=C([C@H]1CC[C@H](c2nnn[nH]2)CC1)N1CC[C@](c2ccc(C(F)(C(F)(F)F)C(F)(F)F)cc2)(S(=O)(=O)c2ccc(F)cc2)C1 .
11

* * *

Assay Details: Stability in mouse liver microsomes assessed as parent compound remaining after 10 mins
Format: ADME, Microsome
Test Settings: liver microsomes, read-out: Stability
Result Type: remaining at 10 min (%)
Write the answer as a number in %, unit excluded.

Illustrative cases are given below, each with its answer.
1) O=C(C1CCS(=O)(=O)CC1)N1CC[C@](c2ccc(C(F)(C(F)(F)F)C(F)(F)F)cc2)(S(=O)(=O)c2ccc(F)cc2)C1
96
2) O=C(O)C12CCC(C(=O)N3CC[C@](c4ccc(C(F)(C(F)(F)F)C(F)(F)F)cc4)(S(=O)(=O)c4ccc(F)cc4)C3)(CC1)CC2
73
3) C[C@]1(C(=O)N2CC[C@](c3ccc(C(F)(C(F)(F)F)C(F)(F)F)cc3)(S(=O)(=O)c3ccc(F)cc3)C2)CC[C@H](C(=O)O)CC1
95
4) O=C(O)C12CCC(C(=O)N3CC[C@](c4ccc(C(F)(C(F)(F)F)C(F)(F)F)cc4)(S(=O)(=O)c4ccc(F)cc4)C3)(CC1)OC2
94

Provide one value: measured remaining at 10 min of O=C([C@H]1CC[C@@](F)(C(=O)O)CC1)N1CC[C@](c2ccc(C(F)(C(F)(F)F)C(F)(F)F)cc2)(S(=O)(=O)c2ccc(F)cc2)C1
94

Provide one value: measured remaining at 10 min of O=C(O)C1CCC(O)(C(=O)N2CC[C@](c3ccc(C(F)(C(F)(F)F)C(F)(F)F)cc3)(S(=O)(=O)c3ccc(F)cc3)C2)CC1 (stereo in doubt; 12)
99
